# Test system: SARS-CoV-2 (USA-WA1/2020) in Calu-3 cells
# Assay type: cell-based
# recorded conditions: low dose (100 nM), Calu-3, 48 h
Please respond with reported dsRNA signal, AU Low for every item in the list.
Reply with just the number (in AU).

Can you share its dsRNA signal, AU Low? I mean this molecule: Nc1ncnc2c1c(I)cn2[C@@H]1O[C@H](CO)[C@@H](O)[C@H]1O
20167.4

Can you share its dsRNA signal, AU Low? I mean this molecule: O=C(O)c1ccc2c(c1)nc(Nc1cccc(Cl)c1)c1ccncc12 [CX-4945 (Silmitasertib)]
21811.4

Can you share its dsRNA signal, AU Low? I mean this molecule: CCCCNc1ncc(C(=O)NCc2ccc(-n3ccnc3)cc2)c(NC2CCC(O)CC2)n1 (stereo not shown)
42094.2

Can you share its dsRNA signal, AU Low? I mean this molecule: c1ccc2c(-c3cnn4cc(-c5ccc(N6CCNCC6)cc5)cnc34)ccnc2c1
7399.9

Can you share its dsRNA signal, AU Low? I mean this molecule: CCN(CC)CC(=O)Nc1c(C)cccc1C
999.3

Can you share its dsRNA signal, AU Low? I mean this molecule: COc1ccc2c(c1)[nH]c1c(C)nccc12 [Harmine]
24294.0

Can you share its dsRNA signal, AU Low? I mean this molecule: CN1CCN(C2CCN(C(=O)Nc3cc(Oc4ccc(NC(=O)C5(C(=O)Nc6ccc(F)cc6)CC5)c(F)c4)ccn3)CC2)CC1 [Golvatinib (E7050)]
23267.5

Can you share its dsRNA signal, AU Low? I mean this molecule: CCOc1ccn(-c2ccc(F)cc2)c(=O)c1C(=O)Nc1ccc(Oc2ccnc(N)c2Cl)c(F)c1
18689.6

Can you share its dsRNA signal, AU Low? I mean this molecule: COC(=O)C1=C(C)NC(C)=C(C(=O)O[C@@H]2CCCN(Cc3ccccc3)C2)[C@@H]1c1cccc([N+](=O)[O-])c1.Cl (racemic) [Benidipine HCl]
31078.1

Can you share its dsRNA signal, AU Low? I mean this molecule: CO[C@H]1CC[C@H](N2C(=O)CNc3ncc(-c4ccc(C(C)(C)O)nc4)nc32)CC1
41988.9

Can you share its dsRNA signal, AU Low? I mean this molecule: Nc1ncnc2c1c(-c1cccc(OCc3ccccc3)c1)cn2[C@H]1C[C@@H](CN2CCC2)C1
19640.6

Can you share its dsRNA signal, AU Low? I mean this molecule: CCc1nc(-c2cccc(C)c2)c(-c2ccnc(NC(=O)c3ccccc3)c2)s1
29513.1

Can you share its dsRNA signal, AU Low? I mean this molecule: COc1ccc(-c2cnc3c(-c4cccc5ncccc45)cnn3c2)cc1
58224.3

Can you share its dsRNA signal, AU Low? I mean this molecule: Cl.Nc1cc(C(F)(F)F)c(-c2cc(N3CCOCC3)nc(N3CCOCC3)n2)cn1 [NVP-BKM120 Hydrochloride]
56514.5

Can you share its dsRNA signal, AU Low? I mean this molecule: C=CC(=O)Nc1cc(-n2c(=O)ccc3cnc4ccc(-c5ccc(NS(C)(=O)=O)cc5)cc4c32)ccc1C
26747.2

Can you share its dsRNA signal, AU Low? I mean this molecule: COc1cc(Nc2c(C#N)cnc3cc(OCCCN4CCN(C)CC4)c(OC)cc23)c(Cl)cc1Cl [Bosutinib (SKI-606)]
42027.4

Can you share its dsRNA signal, AU Low? I mean this molecule: Cc1ccc(Nc2nccc(N(C)c3ccc4c(C)n(C)nc4c3)n2)cc1S(N)(=O)=O
22671.3

Can you share its dsRNA signal, AU Low? I mean this molecule: C=CC(=O)Nc1cccc(Nc2nc(Nc3ccc(OCCOC)cc3)ncc2F)c1
9433.9

Can you share its dsRNA signal, AU Low? I mean this molecule: O=C(O)C(Cl)Cl
13605.1

Can you share its dsRNA signal, AU Low? I mean this molecule: Cc1cccc(CC(=O)N2CCc3c2ccc(-c2cn(C)c4ncnc(N)c24)c3F)n1
33522.6

Can you share its dsRNA signal, AU Low? I mean this molecule: CC(C)N(CCC(=O)c1ccc2ccccc2c1)Cc1ccccc1.Cl [ZM 39923 HCl]
2858.2

Can you share its dsRNA signal, AU Low? I mean this molecule: O=C(/C=C/c1ccccc1)NC(NC(=S)Nc1ccc(Cl)cc1)C(Cl)(Cl)Cl (stereo not shown)
61292.8

----------
Please respond with reported dsRNA signal, AU Low for every item in the list.
# System: SARS-CoV-2 (USA-WA1/2020) in Calu-3 cells
# Type: cell-based
# recorded conditions: low dose (100 nM), Calu-3, 48 h

Can you share its dsRNA signal, AU Low? I mean this molecule: CCC(=O)Nc1cccc(Oc2nc(Nc3ccc(N4CCN(C)CC4)cc3OC)ncc2Cl)c1
38446.0 AU

Can you share its dsRNA signal, AU Low? I mean this molecule: CC(C)(C)c1cc(C=C(C#N)C#N)cc(Br)c1O
44737.5 AU

Can you share its dsRNA signal, AU Low? I mean this molecule: CN(C[C@@H]1COCCO1)S(=O)(=O)Nc1ccc2ccc3ncc(-c4cnn(C)c4)cc3c(=O)c2c1
2226.3 AU

Can you share its dsRNA signal, AU Low? I mean this molecule: O=c1cc(-c2ccccc2)oc2c(O)c(O)ccc12 [7,8-Dihydroxyflavone]
39399.4 AU

Can you share its dsRNA signal, AU Low? I mean this molecule: COc1cc(N2CCC(N3CCN(C)CC3)CC2)ccc1Nc1ncnc(Nc2ccccc2S(=O)(=O)C(C)C)n1
27995.4 AU

----------
Please respond with reported dsRNA signal, AU Low for every item in the list.
# Tested on: SARS-CoV-2 (USA-WA1/2020) in Calu-3 cells
# Type: cell-based
# recorded conditions: low dose (100 nM), Calu-3, 48 h
Reply with just the number (in AU).

Can you share its dsRNA signal, AU Low? I mean this molecule: O=C(Nc1nc2cccc(-c3ccc(CN4CCS(=O)(=O)CC4)cc3)n2n1)C1CC1 [GLPG0634]
2690.2

Can you share its dsRNA signal, AU Low? I mean this molecule: CCCCCCCC/C=C\CCCCCCCCCCCC(=O)O [13(Z)-Docosenoic Acid]
49926.0

Can you share its dsRNA signal, AU Low? I mean this molecule: CC(C)n1c(=O)n(C)c2cnc3cc(F)c(-c4ccc(OCCCN5CCCCC5)nc4)cc3c21 [AZD1390]
37767.2

Can you share its dsRNA signal, AU Low? I mean this molecule: Cc1cc(C(=O)NOCCO)c(Nc2ccc(I)cc2F)n(C)c1=O [AZD8330]
63631.5

Can you share its dsRNA signal, AU Low? I mean this molecule: NC(=O)c1ccccc1Nc1ccnc(Nc2cccc(O)c2)n1 [DB07268]
37894.5

----------
# Test system: SARS-CoV-2 (USA-WA1/2020) in Calu-3 cells
# Type: cell-based
# recorded conditions: low dose (100 nM), Calu-3, 48 h
Counter-ions that a name gives are not always drawn.
Label no if dsRNA signal, AU Low falls below 20000 AU; label yes in every other case.

Can Cl.O=S(=O)(c1cccc2c(I)cccc12)N1CCCNCC1 [ML-7 hydrochloride] be said to have dsRNA signal, AU Low at or above 20000 AU?
no

Can C[C@@H]1CCN(C(=O)CC#N)C[C@@H]1N(C)c1ncnc2[nH]ccc12 [Tofacitinib (CP-690550,Tasocitinib)] be said to have dsRNA signal, AU Low at or above 20000 AU?
no

Can CNC(=O)c1cc(Oc2ccc(NC(=O)Nc3ccc(Cl)c(C(F)(F)F)c3)c(F)c2)ccn1 [Regorafenib] be said to have dsRNA signal, AU Low at or above 20000 AU?
yes

Can Cc1c(Cn2c(C)nc3c(C(=O)O)cc(N4CCOCC4)cc32)cccc1C(F)(F)F [GSK2636771] be said to have dsRNA signal, AU Low at or above 20000 AU?
yes

Can O=C(O)c1cc(O)c2c(c1)[C@@H]([C@H]1c3cc(C(=O)O)cc(O)c3C(=O)c3c(O[C@@H]4O[C@H](CO)[C@@H](O)[C@H](O)[C@H]4O)cccc31)c1cccc(O[C@@H]3O[C@H](CO)[C@@H](O)[C@H](O)[C@H]3O)c1C2=O [Sennoside B] be said to have dsRNA signal, AU Low at or above 20000 AU?
no

Can O=C(Nc1cccc(Nc2nccc(Nc3cccc(C(F)(F)F)c3)n2)c1)C1CC1 [Aurora Kinase Inhibitor III] be said to have dsRNA signal, AU Low at or above 20000 AU?
no

Can N#Cc1c(-c2ccccc2)cc(-c2cc(Br)ccc2O)[nH]c1=O [TCS PIM-1 1] be said to have dsRNA signal, AU Low at or above 20000 AU?
no

Can COc1ccc(/C=C(\C#N)c2cccnc2)cc1OC [RG 13022] be said to have dsRNA signal, AU Low at or above 20000 AU?
no

Can CCC(=O)N1CCN(c2ccc(-n3c(=O)ccc4cnc5ccc(-c6cnc7ccccc7c6)cc5c43)cc2C(F)(F)F)CC1 [Torin 1] be said to have dsRNA signal, AU Low at or above 20000 AU?
no

Can Cc1ccc(NC(=O)Nc2cc(C(F)(F)F)ccc2F)cc1Nc1ccc2c(c1)NC(=O)/C2=C\c1ccc[nH]1 [GNF-5837] be said to have dsRNA signal, AU Low at or above 20000 AU?
yes

Can O=C(NC[C@H](O)CO)c1ccncc1Nc1ccc(I)cc1F [Pimasertib (AS-703026)] be said to have dsRNA signal, AU Low at or above 20000 AU?
no

Can COc1ccc(-c2coc3cc(O)cc(O)c3c2=O)cc1 [Biochanin A] be said to have dsRNA signal, AU Low at or above 20000 AU?
yes

Can CCn1c(C(=O)N(C2CC2)C2CC2)cc2c3c(ncn3C)c(Nc3cc(C)n(C)n3)nc21 [BMS-911543] be said to have dsRNA signal, AU Low at or above 20000 AU?
no

Can COc1ccc2c(c1)[nH]c1c(C)nccc12 [Harmine hydrochloride] be said to have dsRNA signal, AU Low at or above 20000 AU?
yes

Can COc1ccc(Cl)c(Nc2nc3ccccc3nc2NS(=O)(=O)c2cccc(NC(=O)C(C)(C)N)c2)c1 [XL147] be said to have dsRNA signal, AU Low at or above 20000 AU?
yes

Can Cc1cccc(-c2nn3c(c2-c2ccnc4ccc(C(N)=O)cc24)CCC3)n1 [LY2157299] be said to have dsRNA signal, AU Low at or above 20000 AU?
no

Can Cc1ccc(-n2nc(C(C)(C)C)cc2NC(=O)Nc2ccc(OCCN3CCOCC3)c3ccccc23)cc1 [BIRB 796 (Doramapimod)] be said to have dsRNA signal, AU Low at or above 20000 AU?
no

Can C=CC(=O)Nc1cccc(Nc2nc(Nc3ccc(N4CCN(C(C)=O)CC4)cc3OC)ncc2C(F)(F)F)c1 [CO-1686 (AVL-301)] be said to have dsRNA signal, AU Low at or above 20000 AU?
yes

Can O=C(O)c1ccc(N2C(=O)/C(=C\c3ccc(-c4ccc([N+](=O)[O-])cc4)o3)C=C2c2ccccc2)cc1 [4E1RCat] be said to have dsRNA signal, AU Low at or above 20000 AU?
no

Can CCN(CC)CCCCNc1ncc2cc(-c3cc(OC)cc(OC)c3)c(NC(=O)NC(C)(C)C)nc2n1 [PD 173074] be said to have dsRNA signal, AU Low at or above 20000 AU?
no

Can O=C1NC(=O)/C(=C\c2ccc3nccnc3c2)S1 [AS-605240] be said to have dsRNA signal, AU Low at or above 20000 AU?
yes

Can CN1CCN(c2ccc(OC(F)(F)F)c(Nc3ncc4c(n3)-c3c(c(C(N)=O)nn3CCO)CC4)c2)CC1 [NMS-1286937] be said to have dsRNA signal, AU Low at or above 20000 AU?
yes

Every entry's value here was drawn from paper PMC12142043.
